assayed.target: ROCKII (1-543) (Homo sapiens (Human), UniProt O75116)
test: IMAP Assay (Assay 2)
Assay type: biochemical
assay.context: IMAP fluorescence polarization; 100 μM ATP, 1 nM kinase
Sequence (O75116 1-543, species assumed): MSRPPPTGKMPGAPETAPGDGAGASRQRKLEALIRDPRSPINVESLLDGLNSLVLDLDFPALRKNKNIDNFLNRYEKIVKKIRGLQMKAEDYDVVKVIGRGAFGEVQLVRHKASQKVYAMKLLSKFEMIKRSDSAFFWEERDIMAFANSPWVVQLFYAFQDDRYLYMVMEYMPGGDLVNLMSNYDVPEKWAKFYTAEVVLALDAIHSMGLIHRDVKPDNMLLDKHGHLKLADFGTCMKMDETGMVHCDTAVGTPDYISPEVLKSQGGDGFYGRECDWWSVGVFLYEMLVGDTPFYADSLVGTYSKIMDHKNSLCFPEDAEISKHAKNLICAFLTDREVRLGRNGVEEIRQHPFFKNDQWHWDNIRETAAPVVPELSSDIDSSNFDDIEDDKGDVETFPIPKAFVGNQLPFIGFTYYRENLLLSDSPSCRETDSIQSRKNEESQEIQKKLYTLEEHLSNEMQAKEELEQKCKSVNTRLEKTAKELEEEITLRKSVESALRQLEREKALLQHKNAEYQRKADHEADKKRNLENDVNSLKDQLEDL
property.label: IC50 (nM)

Example results:
compound	assayed.target	property.label	reported
CN1CCc2ccc(NC(=O)c3cccc(CNC(=O)N4CCc5c(C#N)cccc54)c3)cc2C1 [compound 201]	ROCKII (1-543) (Homo sapiens (Human), UniProt O75116)	IC50	34
CN1CCc2nc(NC(=O)c3cccc(CNC(=O)c4ccc(-c5cn[nH]c5)s4)c3)sc2C1 [compound 120]	ROCKII (1-543) (Homo sapiens (Human), UniProt O75116)	IC50	0.77
CN1CCc2ccc(NC(=O)c3cccc(CNC(=O)c4ccc(-c5cnco5)cc4)c3)cc2C1 [compound 49]	ROCKII (1-543) (Homo sapiens (Human), UniProt O75116)	IC50	26

(1) CN1CCc2nc(NC(=O)c3cccc(CNC(=O)N4CCc5c(C#N)cccc54)c3)sc2C1 [compound 90]
(2) CN1CCc2ccc(NC(=O)c3cccc(CNC(=O)c4cc5cc(C#N)ccc5n4C)c3)cc2C1 [compound 94]
(3) Cc1nnnn1-c1ccc(C(=O)NCc2cccc(C(=O)Nc3nc4c(s3)C[C@H](N)CC4)c2)cc1 [compound 36]
[Q] Order the 3 compounds from highest to lowest IC50. The response must list the labels following the requested ordering.
[A] 2, 1, 3

----------
assayed.target: ROCKII (1-543) (Homo sapiens (Human), UniProt O75116)
test: IMAP Assay (Assay 2)
Type: biochemical
assay.context: IMAP fluorescence polarization; 100 μM ATP, 1 nM kinase
pIC50: −log10 of the molar value.
property.label: pIC50

CN(C)[C@H]1CCc2nc(NC(=O)c3cccc(CNC(=O)c4ccc(-c5cnco5)cc4)c3)sc2C1 9.70

(A) CN1CCc2ccc(NC(=O)c3cccc(CNC(=O)c4cccc(-c5cnco5)c4)c3)cc2C1
(B) Cc1nc(-c2ccncc2)sc1C(=O)NCc1cccc(C(=O)Nc2nc3c(s2)CN(C)CC3)c1
(C) CN(C)[C@H]1CCc2nc(NC(=O)c3cccc(CNC(=O)c4cn5ccc(C#N)cc5n4)c3)sc2C1
(D) CN1CCc2nc(NC(=O)c3cccc(CNC(=O)c4csc(-c5cccnc5)n4)c3)sc2C1
[Q] Put the molecules in ascending order of pIC50. Return the labels ranked in the requested order, please.
[A] A, D, B, C
(A: 7.25, D: 8.10, B: 8.85, C: 9.57)

(1) CN1CCc2ccc(NC(=O)c3cccc(CNC(=O)c4ccc(-n5cncn5)cc4)c3)cc2C1
(2) CN(C)[C@H]1CCc2nc(NC(=O)c3cccc(CNC(=O)c4ccc(-c5cn[nH]c5)s4)c3)sc2C1
[Q] Please indicate which item has the smaller measured pIC50: 1 versus 2 Please indicate the selected item by its label.
[A] 1

----------
assayed.target: ROCKII (1-543) (Homo sapiens (Human), UniProt O75116)
test: Luciferin-Luciferase Assay (Assay 1)
Format: biochemical
assay.context: luciferin-luciferase residual ATP; 750 nM ATP, 7.5 nM kinase
Sequence (O75116 1-543): as the sequence (O75116 1-543, species assumed) above
pIC50: −log10 of the molar value.
property.label: pIC50

Some compounds with recorded pIC50:
compound	assayed.target	property.label	reported
Cc1nnnn1-c1ccc(C(=O)NCc2cccc(C(=O)Nc3nc4c(s3)C[C@H](N)CC4)c2)cc1	ROCKII (1-543) (Homo sapiens (Human), UniProt O75116)	pIC50	8.85
CN1CCc2ccc(NC(=O)c3cccc(CNC(=O)C4=NC5=CC=NC(=O)C5C=C4)c3)cc2C1 (stereo not drawn)	ROCKII (1-543) (Homo sapiens (Human), UniProt O75116)	pIC50	7.56
N[C@H]1CCc2nc(NC(=O)c3cccc(CNC(=O)c4cccc(-c5cccnc5)c4)c3)sc2C1	ROCKII (1-543) (Homo sapiens (Human), UniProt O75116)	pIC50	8.92

(1) CN1CCc2ccc(NC(=O)c3cccc(CNC(=O)c4ccc(-c5cnco5)s4)c3)cc2C1
(2) CN1CCc2nc(NC(=O)c3cccc(CNC(=O)c4cc5cc(C#N)ccc5n4C)c3)sc2C1
[Q] Pick the one with the larger pIC50: 1 vs 2 Field: selected label. Fill in the label of the entry you choose.
[A] 1

(a) N[C@@H]1CCc2nc(NC(=O)c3cccc(CNC(=O)c4cccc(-c5cn[nH]c5)c4)c3)sc2C1
(b) Cc1c(C(=O)NCc2cccc(C(=O)Nc3nc4c(s3)CN(C)CC4)c2)nnn1-c1nonc1N
[Q] Form: Entry with minimum pIC50 (choose one): a / b Answer with the label corresponding to your selection.
[A] b

(A) CCn1c(C(=O)NCc2cccc(C(=O)Nc3ccc4c(c3)CN(C)CC4)c2)cc2ccc(C#N)cc21
(B) CN1CCc2ccc(NC(=O)c3cccc(CNC(=O)c4cc5ccc(C(N)=O)cc5[nH]4)c3)cc2C1
[Q] Hi, I'm comparing two records. Which one has the lower pIC50, A or B ? Refer to your chosen item by its label in the answer.
[A] A
(A: 7.62, B: 8.89)

----------
assayed.target: ROCKII (1-543) (Homo sapiens (Human), UniProt O75116)
test: IMAP Assay (Assay 2)
Assay type: biochemical
assay.context: IMAP fluorescence polarization; 100 μM ATP, 1 nM kinase
property.label: IC50 (pM)

Use the examples below as a reference point.
molecule	unit.annotation	IC50
CN1CCc2ccc(NC(=O)c3cccc(CNC(=O)c4cccc(-c5cn[nH]c5)c4)c3)cc2C1 [compound 3]	pM	5100
CN1CCc2ccc(NC(=O)c3cccc(CNC(=O)c4cc5cc(C#N)ccc5[nH]4)c3)cc2C1 [compound 80]	pM	580
N[C@@H]1CCc2nc(NC(=O)c3cccc(CNC(=O)c4cccc(-c5cccnc5)c4)c3)sc2C1 [compound 40]	pM	10000
CN(C)[C@H]1CCc2nc(NC(=O)c3cccc(CNC(=O)c4ccc(-c5ccncc5)cc4)c3)sc2C1 [compound 106]	pM	220
Cc1nc(-c2ccncc2)sc1C(=O)NCc1cccc(C(=O)Nc2nc3c(s2)C[C@@H](N(C)C)CC3)c1 [compound 205]	pM	250

(P) CN1CCc2ccc(NC(=O)c3cccc(CNC(=O)c4cnc(-c5cccnc5)s4)c3)cc2C1 [compound 194]
(Q) CN(C)[C@H]1CCc2nc(NC(=O)c3cccc(CNC(=O)c4ccc(-n5ccnc5)cc4)c3)sc2C1 [compound 134]
[Q] So which one has the bigger IC50 here, P or Q ? Provide the label of your selected option as the answer.
[A] P
(P: 30000 pM, Q: 240 pM)

----------
assayed.target: ROCKII (1-543) (Homo sapiens (Human))
test: Luciferin-Luciferase Assay (Assay 1)
Format: biochemical
assay.context: luciferin-luciferase residual ATP; 750 nM ATP, 7.5 nM kinase
property.label: IC50 (nM)

Known results for compounds:
CN1CCc2ccc(NC(=O)c3cccc(CNC(=O)c4cc5cccc(O)c5cc4O)c3)cc2C1 80
CN1CCc2ccc(NC(=O)c3cccc(CNC(=O)c4cc(-c5cccnc5)[nH]n4)c3)cc2C1 91.5

(P) CCN1C(=O)CSc2ccc(C(=O)NCc3cccc(C(=O)Nc4ccc5c(c4)CN(C)CC5)c3)cc21
(Q) CN1CCc2nc(NC(=O)c3cccc(CNC(=O)c4cc(-c5ccncc5)n[nH]4)c3)sc2C1
[Q] # compare IC50 for P vs Q ; return the one with the smaller value // caller expects the label of the chosen entry
[A] Q

----------
assayed.target: ROCKII (1-543) (Homo sapiens (Human), UniProt O75116)
test: Luciferin-Luciferase Assay (Assay 1)
Assay type: biochemical
assay.context: luciferin-luciferase residual ATP; 750 nM ATP, 7.5 nM kinase
Method: 1. Luciferin-Luciferase Assay The activity of ROCKII (1-543) kinase is measured utilizing Cambrex PKLight ATP Detection Reagent, a homogeneous assay technology using luciferin-luciferase to quantify residual ATP. The assay is performed in 384-well low-volume, white, non-binding surface microtiter plates (Corning). […] The assay plate is incubated at room temperature for additional 15 minutes and then read on an Analyst in luminescence mode. […]
property.label: IC50 (nM)

Known IC50 results, listed for orientation:
CN1CCc2nc(NC(=O)c3cccc(CNC(=O)c4cn5cc(C#N)ccc5n4)c3)sc2C1 45.7
CN1CCc2nc(NC(=O)c3cccc(CNC(=O)c4cccc(-c5cccnc5)c4)c3)sc2C1 22.5
Cc1nnnn1-c1ccc(C(=O)NCc2cccc(C(=O)Nc3ccc4c(c3)CN(C)CC4)c2)cc1 43.5
CN1CCc2ccc(NC(=O)c3cccc(CNC(=O)c4ccc(-c5nnco5)cc4)c3)cc2C1 49.3
Cc1ncc(-c2ccc(C(=O)NCc3cccc(C(=O)Nc4ccc5c(c4)CN(C)CC5)c3)s2)o1 64.2

(1) CN1CCc2ccc(NC(=O)c3cccc(CNC(=O)c4nnn(-c5nonc5N)c4-c4ccccc4)c3)cc2C1
(2) CN1CCc2ccc(NC(=O)c3cccc(CNC(=O)c4ccc(-c5cc[nH]n5)cc4)c3)cc2C1
[Q] // compare measured IC50, left 1 , right 2 , return larger Use the label to indicate which entry you chose.
[A] 2
(2: 8.1 nM, 1: 1.7 nM)

(P) CN1CCc2ccc(NC(=O)c3cccc(CNC(=O)c4cc5cc(C(N)=O)ccc5n4C)c3)cc2C1
(Q) CN1CCc2nc(NC(=O)c3cccc(CNC(=O)c4ccc(-c5cccnc5)s4)c3)sc2C1
(R) CN1CCc2nc(NC(=O)c3cccc(CNC(=O)c4nnn(-c5nonc5N)c4-c4ccccc4)c3)sc2C1
[Q] Provide the items ranked by increasing IC50. Use the labels to give the ranking in the order requested.
[A] R, P, Q
(R: 1.8 nM, P: 3.8 nM, Q: 15.5 nM)

Reference source for all entries: patent US8697911B2
